Test: Stability in pH 7.4 buffer assessed as rate constant of compound hydrolysis at 37 degC by 31P NMR analysis
Format: physicochemical
MEASUREMENT_LABEL: K

[[record]]
query_smiles = "CC(=O)N[C@H](C(=O)[O-])[C@@H](C)OP(=O)([O-])N[C@@H](Cc1ccc(O)c(O)c1)C(=O)[O-].[K+].[K+].[K+]"
measurement_label = "K"
result = "7.2 ×10⁻¹ /hr"

[[record]]
query_smiles = "CC(=O)NCCOP(=O)([O-])N[C@@H](Cc1ccc(O)c(O)c1)C(=O)[O-].[K+].[K+]"
measurement_label = "K"
result = "Stable"

[[record]]
query_smiles = "CCOC(=O)[C@H](COP(=O)([O-])N[C@@H](Cc1ccc(O)c(O)c1)C(=O)[O-])NC(C)=O.[K+].[K+]"
measurement_label = "K"
result = "Stable"

[[record]]
query_smiles = "CC(=O)N[C@@H](COP(=O)([O-])N[C@@H](Cc1ccc(O)c(O)c1)C(=O)[O-])C(=O)[O-].[K+].[K+].[K+]"
measurement_label = "K"
result = "7 ×10⁻² /hr"

[[record]]
query_smiles = "CC(=O)N[C@@H](COP(=O)([O-])NCCc1ccc(O)c(O)c1)C(=O)[O-].[K+].[K+]"
measurement_label = "K"
result = "5.7 ×10⁻² /hr"


Query :: Given the molecule CCOC(=O)[C@@H](NC(C)=O)[C@@H](C)OP(=O)([O-])N[C@@H](Cc1ccc(O)c(O)c1)C(=O)[O-].[K+].[K+] , what is its reported K?
Result :: Stable

Query :: Data request, read-out K, for O=C([O-])CCCOP(=O)([O-])N[C@@H](Cc1ccc(O)c(O)c1)C(=O)[O-].[K+].[K+].[K+]
Result :: Stable

Query :: # K lookup, item CCOC(=O)CCOP(=O)([O-])N[C@@H](Cc1ccc(O)c(O)c1)C(=O)[O-].[K+].[K+]
Result :: Stable
